Listed next: entries and their corresponding photostability (residual absorptivity).
Protocol text: Photostability under iodine-tungsten lamp irradiation (residual absorptivity)
Assay type: physicochemical
Condition info: 10 μM in acetonitrile, 500 W iodine-tungsten lamp at 25 cm, 6 hrs irradiation

>  <Smiles data>
CCN(CC)c1ccc2nc3c(cc2c1)c(=O)oc1cc(N(CC)CC)ccc13

>  <photostability (residual absorptivity)>
43%

$$$$
>  <Smiles data>
CCN(CC)c1ccc2c(c1)oc(=O)c1cc3c(ccc4nc5c(cc43)c(=O)oc3cc(N(CC)CC)ccc35)nc12

>  <photostability (residual absorptivity)>
71%

$$$$
>  <Smiles data>
CCN(CC)c1ccc2c(c1)oc(=O)c1cc3ccc4ccccc4c3nc12

>  <photostability (residual absorptivity)>
76%

$$$$
>  <Smiles data>
CCN(CC)c1ccc2nc3c(cc2c1)c(=O)oc1ccccc13

>  <photostability (residual absorptivity)>
46%

$$$$
